molecular target: XIAP BIR-3 (Homo sapiens, UniProt P98170); construct: 40 nM of the respective IAP BIR3; assay: Fluorescence polarization binding affinity to XIAP BIR-3 (competition with AbuRPF-K(5-Fam)-NH2); details: 5 nM labeled peptide, 40 nM BIR3, 15 min at RT, pH 7.5; reported as ranges
Sequence (P98170 241-356 limits assumed): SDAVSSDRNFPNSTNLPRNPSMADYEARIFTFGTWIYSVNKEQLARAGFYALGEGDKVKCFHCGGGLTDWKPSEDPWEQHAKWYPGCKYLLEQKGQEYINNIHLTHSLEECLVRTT
pKd: −log10 of the molar value.
Quantity Measured: pKd

Some compounds with recorded pKd:
[ask] Requested read-out: pKd. Entry: CN[C@@H](C)C(=O)N[C@@H](COC)C(=O)N1CC[C@@H]2[C@H]1[C@H](c1c[nH]c3cc(F)ccc13)CN2C1CCCC1
[reply] 5.00 to 6.00

[ask] Then CN[C@@H](C)C(=O)N[C@H](C(=O)N1CC[C@@H]2[C@H]1[C@@H](c1c[nH]c3cc(F)ccc13)CN2C1CCCCC1)C1CCCCC1 ?
[reply] > 7.00

[ask] Note, next up: CN[C@@H](C)C(=O)N[C@H](C(=O)N1CC[C@@H]2[C@H]1[C@@H](c1c[nH]c3cc(F)ccc13)CN2C(=O)C(F)(F)F)C1CCCCC1
[reply] > 7.00

[ask] Now this one: CC[C@H](NC(=O)[C@H](C)NC)C(=O)N1CC[C@@H]2[C@H]1[C@H](c1c[nH]c3cc(F)ccc13)CN2S(C)(=O)=O
[reply] < 5.00

[ask] Quick one: CN[C@@H](C)C(=O)N[C@H](C(=O)N1CC[C@H]2NC[C@@H](c3c[nH]c4cc(F)ccc34)[C@H]21)C1CCCCC1
[reply] < 5.00

[ask] Also CN[C@@H](C)C(=O)N[C@H](C(=O)N1CC[C@@H]2[C@H]1[C@@H](c1c[nH]c3cc(F)ccc13)CN2S(C)(=O)=O)C(C)(C)C , if possible.
[reply] > 7.00

New cases:
[ask] // query pKd value for entry CN[C@@H](C)C(=O)N[C@@H](CO)C(=O)N1CC[C@@H]2[C@H]1[C@@H](c1c[nH]c3cc(F)ccc13)CN2Cc1ccccc1
[reply] 5.00 to 6.00

[ask] CN[C@@H](C)C(=O)N[C@H](C(=O)N1CC[C@@H]2[C@H]1[C@@H](c1c[nH]c3cc(F)ccc13)CN2CC(=O)O)C1CCCCC1 ?
[reply] 6.00 to 7.00

[ask] Entry to check: CN[C@@H](C)C(=O)N[C@H](C(=O)N1CC[C@@H]2[C@H]1[C@H](c1c[nH]c3cc(F)ccc13)CN2C1CCCC1)C(C)C
[reply] 5.00 to 6.00

[ask] One more compound: CNC(C)C(=O)NC(C(=O)N1CCC2C1CCN2C(=O)C(NC(=O)C(C)NC)C1CCCCC1)C1CCCCC1 (stereo not drawn)
[reply] 5.00 to 6.00

[ask] Field entry: CN[C@@H](C)C(=O)N[C@H](C(=O)N1CC[C@H]2NC[C@@H](c3c[nH]c4ccccc34)[C@H]21)C1CCCCC1
[reply] < 5.00

[ask] Try this compound next: CN[C@@H](C)C(=O)N[C@H](C(=O)N1CC[C@H]2NC[C@H](c3c[nH]c4ccccc34)[C@H]21)C1CCCCC1
[reply] > 7.00

---

In this section we review reported Kd values for a set of compounds.
biological target: XIAP BIR-3 (Homo sapiens); construct: 40 nM of the respective IAP BIR3; assay: Fluorescence polarization binding affinity to XIAP BIR-3 (competition with AbuRPF-K(5-Fam)-NH2); settings: 5 nM labeled peptide, 40 nM BIR3, 15 min at RT, pH 7.5; reported as ranges

[ask] # input compound: CN[C@@H](C)C(=O)N[C@H](C(=O)N1CC[C@@H]2[C@H]1[C@@H](c1c[nH]c3cc(F)ccc13)CN2C(=O)C1CC1)C1CCCCC1 ; wanted: its Kd
[reply] < 0.1 µM

More entries:
[ask] Any idea what its Kd is? The compound is CN[C@@H](C)C(=O)N[C@H](C(=O)N1CC[C@@H]2[C@H]1[C@@H](c1c[nH]c3cc(F)ccc13)CN2C(C)=O)[C@@H](C)O
[reply] < 0.1 µM

[ask] Next record, please: CN[C@@H](C)C(=O)N[C@H](C(=O)N1CC[C@H]2NC[C@H](c3c[nH]c4cc(F)ccc34)[C@H]21)[C@@H](C)OC
[reply] < 0.1 µM

---

Measured CC50 by item
system: SK-OV-3 cells; assay: Growth inhibition of ovarian cancer cell line SK-OV-3 (MTT assay, cell survival); assay type: cell-based; details: Homo sapiens, drug concentration that results in 50% cell survival, 72 hrs incubation, reported as ranges

The examples below pair each entry with its known result.
[ask] Short answer please: CC50, SK-OV-3 cells, entry CN[C@@H](C)C(=O)N[C@@H](CO)C(=O)N1CC[C@@H]2[C@H]1[C@@H](c1c[nH]c3cc(F)ccc13)CN2S(C)(=O)=O
[reply] 1000 to 10000 nM

[ask] For CC[C@H](NC(=O)[C@H](C)NC)C(=O)N1CC[C@@H]2[C@H]1[C@H](c1c[nH]c3cc(F)ccc13)CN2C1CCCC1 then?
[reply] 1000 to 10000 nM

[ask] Follow-up item: CC[C@H](NC(=O)[C@H](C)NC)C(=O)N1CC[C@@H]2[C@H]1[C@@H](c1c[nH]c3ccc(F)cc13)CN2C(C)=O
[reply] 100 to 1000 nM

[ask] Also CN[C@@H](C)C(=O)NC(C)C(=O)N1CC[C@@H]2[C@H]1[C@@H](c1c[nH]c3cc(F)ccc13)CN2C(C)=O (stereo partly drawn) ?
[reply] 100 to 1000 nM

[ask] Note, next up: CN[C@@H](C)C(=O)N[C@H](C(=O)N1CC[C@@H]2[C@H]1[C@@H](c1c[nH]c3cc(F)ccc13)CN2S(C)(=O)=O)C(C)(C)C
[reply] < 100 nM

***
[ask] Request body: readout CC50, system SK-OV-3 cells, query CN[C@@H](C)C(=O)N[C@H](C(=O)N1CC[C@@H]2[C@H]1[C@H](c1c[nH]c3cc(F)ccc13)CN2S(C)(=O)=O)[C@@H](C)O . Return the value.
[reply] > 10000 nM

---

target: cIAP-1 BIR-3 (Homo sapiens); assay: Fluorescence polarization binding affinity to cIAP-1 BIR-3 (competition with AbuRPF-K(5-Fam)-NH2); settings: 5 nM labeled peptide, 40 nM BIR3, 15 min at RT, pH 7.5; reported as ranges; read-out: KD (c-IAP-1 BIR3)
Sequence (Q13490 266-352 limits assumed): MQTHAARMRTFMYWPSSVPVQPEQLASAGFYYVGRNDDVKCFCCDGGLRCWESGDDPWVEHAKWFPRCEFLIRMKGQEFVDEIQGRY
pKd: −log10 of the molar value.
Quantity Measured: pKd

Below: 5 compounds and their reported pKd.
[ask] Field request: pKd | item: CN[C@@H](C)C(=O)N[C@@H](CO)C(=O)N1CC[C@H]2NC[C@H](c3c[nH]c4cc(F)ccc34)[C@H]21
[reply] > 7.00

[ask] Now give it for CN[C@@H](C)C(=O)N[C@H](C(=O)N1CC[C@@H]2[C@H]1[C@@H](c1c[nH]c3cc(F)ccc13)CN2C1CCCC1)C1CCCCC1 too.
[reply] > 7.00

[ask] Also need CO[C@H](C)[C@H](NC(=O)[C@H](C)N)C(=O)N1CC[C@H]2NC[C@H](c3cn(Cc4ccccc4)c4cc(F)ccc34)[C@H]21 , thanks.
[reply] > 7.00

[ask] Next compound up: CN[C@@H](C)C(=O)N[C@H](C(=O)N1CC[C@@H]2[C@H]1[C@@H](c1c[nH]c3ccc(F)cc13)CN2C(C)=O)C1CCCCC1
[reply] > 7.00

[ask] Queued: CN[C@@H](C)C(=O)N[C@H](C(=O)N1CC[C@@H]2[C@H]1[C@@H](c1c[nH]c3ccc(F)cc13)CN2C(C)=O)C(C)C
[reply] > 7.00

From here, focus on the item given below.
[ask] Bench note: what pKd did CC[C@H](NC(=O)[C@H](C)NC)C(=O)N1CC[C@@H]2[C@H]1[C@H](c1c[nH]c3cc(F)ccc13)CN2Cc1ccccc1 show?
[reply] 6.00 to 7.00

---

target: cIAP-1 BIR-3 (Homo sapiens); test: Fluorescence polarization binding affinity to cIAP-1 BIR-3 (competition with AbuRPF-K(5-Fam)-NH2); conditions: 5 nM labeled peptide, 40 nM BIR3, 15 min at RT, pH 7.5; reported as ranges; read-out: KD (c-IAP-1 BIR3)
pKd: −log10 of the molar value.
Quantity Measured: pKd

[ask] Please give the measured pKd for this compound: CN[C@@H](C)C(=O)N[C@H](C(=O)N1CC[C@@H]2[C@H]1[C@@H](c1c[nH]c3cc(F)ccc13)CN2C(C)C)C1CCCCC1
[reply] > 7.00

[ask] Likewise for CN[C@@H](C)C(=O)N[C@H](C(=O)N1C[C@@H](O)[C@H]2NC[C@@H](c3c[nH]c4cc(F)ccc34)[C@H]21)C1CCCCC1 ?
[reply] 6.00 to 7.00

[ask] Another compound to look at: CN[C@@H](C)C(=O)N[C@@H](COC)C(=O)N1CC[C@@H]2[C@H]1[C@H](c1c[nH]c3cc(F)ccc13)CN2S(C)(=O)=O
[reply] 5.00 to 6.00

[ask] Cool, now CN[C@@H](C)C(=O)NC(C)C(=O)N1CC[C@@H]2[C@H]1[C@@H](c1c[nH]c3cc(F)ccc13)CN2C(C)=O (stereo partly drawn)
[reply] > 7.00

[ask] Thanks! And CC[C@H](NC(=O)[C@H](C)NC)C(=O)N1CC[C@@H]2[C@H]1[C@H](c1c[nH]c3cc(F)ccc13)CN2S(C)(=O)=O ?
[reply] 5.00 to 6.00

Next compound, please.
[ask] Fill in the blank: the reported pKd of CN[C@@H](C)C(=O)N[C@@H](COC)C(=O)N1CC[C@@H]2[C@H]1[C@@H](c1c[nH]c3cc(F)ccc13)CN2C1CCCC1 is ____.
[reply] 6.00 to 7.00
